Numbers sourced from ChEMBL document CHEMBL5500406.

# assay remarks: Volume of distribution at steady state in Sprague-Dawley rat at 3 mg/kg, iv measured for 24 hrs by LC-MS/MS analysis
# Type: ADME, organism-based
# measurement setup: in vivo, read-out: Vdss
property label: Vd

Please give measured Vd of the following entry: COc1nc(OCc2cccc(-c3ccccc3)c2C)ccc1CNCCNC(=O)CCCCCCCCNC(=O)COc1ccc(C2CCC(=O)NC2=O)cc1 (stereo unspecified) 23 L/kg

----------
# assay remarks: Half life in Sprague-Dawley rat at 3 mg/kg, iv measured for 24 hrs by LC-MS/MS analysis
# Format: ADME, organism-based
# measurement setup: in vivo
property label: half-life (min)
Kindly provide the numeric value in min only, without the unit symbol.

Please give measured half-life of the following entry: COc1nc(OCc2cccc(-c3ccccc3)c2C)ccc1CNCCNC(=O)CCCCCCCCNC(=O)COc1ccc(C2CCC(=O)NC2=O)cc1 (stereo unspecified) 57.1
